Listed next: entries and their corresponding Potency.
target-system: DNA dC->dU-editing enzyme APOBEC-3G (Homo sapiens)
assay-protocol: qHTS for inhibitors of Vif-A3G interactions: Cherry picks counterscreen;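 note: potency is the fitted concentration of half-maximal effect; hits raise yellow fluorescence by blocking Vif-driven A3G-eYFP degradation; nearly all actives have a fitted effect of over 70% in size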
test-context: HeLa A3G-eYFP + Vif, eYFP fluorescence, 24 h
Text: The recent discovery and characterization of host restriction factors, which provide a potent defense to invading retroviruses, has provided new targets for antiviral drug development. […] In the presence of an inhibitor, it is expected that Vif will be unable to degrade A3G-eYFP and/or A3F-eYFP, resulting in an increase in yellow fluorescence. […]
In all, about 2,100 compounds went through this assay and about 1,100 (52%) were called active. About 27% were inconclusive and are not listed. The set was probably picked from earlier hits. The list shows a part of the results.

COc1ccc(-c2ccc(OC)c(OC)c2OC)cc1 : 3.96 µM (active)
CN1C(=O)C(=Cc2ccc(N3CCCCC3)o2)C(=O)N(C)C1=S : 2.91 µM (active)
O=Cc1c(C(=O)O)n(Cc2ccc(Cl)cc2)c2ccccc12 : 3.66 µM (active)
CN1C(=O)C(=Cc2ccc(N3CCOCC3)o2)C(=O)N(C)C1=S : 20.6 µM (active)
Cc1ccc(CNC(=O)c2ccccc2NC(=O)c2nsc3ccccc23)cc1 : 23.1 µM (active)

Query string: Query: Potency; subject: CN1C(=O)/C(=C/c2ccc(N3CCCCCC3)o2)C(=O)NC1=S
Result string: 15.8 µM (active)

----------
target-system: DNA dC->dU-editing enzyme APOBEC-3G (Homo sapiens)
assay-protocol: qHTS for inhibitors of Vif-A3G interactions: Cherry picks counterscreen;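 note: potency is the fitted concentration of half-maximal effect; hits raise yellow fluorescence by blocking Vif-driven A3G-eYFP degradation; nearly all actives have a fitted effect of over 70% in size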
test-context: HeLa A3G-eYFP + Vif, eYFP fluorescence, 24 h
The campaign covered roughly 2,100 compounds. About 1,100 (52%) were called active. Roughly 27% stayed inconclusive and do not appear here. The set was probably picked from earlier hits. The list shows a part of the results.
observation-type: Potency

// known answers, use as guide
N#CC1=C(N)Oc2c(c(=O)sc3ccccc23)C1c1cccnc1 (configuration not stated) : 5.59 µM (active)
CC(=O)Nc1cccc(-c2ccnc3c2CC(C(=O)NCc2ccco2)O3)c1 (configuration not stated) : 6.27 µM (active)
COc1ccc(-n2c(/C=C/c3ccc(O)c(OC)c3)nc3ccccc3c2=O)cc1 : 23.1 µM (active)
Cc1cccc(-n2c(/C=C/c3ccc([N+](=O)[O-])o3)nc3ccccc3c2=O)c1 : 5.17 µM (active)

Query string: Query: Potency; subject: Cc1ccccc1-n1c(/C=C/c2ccc(N(C)C)cc2)nc2ccccc2c1=O
Result string: 1.46 µM (active)

Query string: Query: Potency; subject: CC(=O)O[C@@]12CO[C@@H]1C[C@H](OC1OCC(O)C(O)C1O)[C@@]1(C)C(=O)[C@H](O)C3=C(C)[C@@H](OC(=O)[C@H](O)[C@@H](NC(=O)c4ccccc4)c4ccccc4)C[C@@](O)([C@@H](OC(=O)c4ccccc4)C12)C3(C)C (some centres not stated)
Result string: 1.25 µM (active)

Query string: Query: Potency; subject: O=c1c2ccccc2nc(/C=C/c2ccc([N+](=O)[O-])o2)n1-c1ccc(O)cc1
Result string: 8.86 µM (active)

----------
target-system: DNA dC->dU-editing enzyme APOBEC-3G (Homo sapiens)
assay-protocol: qHTS for inhibitors of Vif-A3G interactions: Cherry picks counterscreen;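 note: potency is the fitted concentration of half-maximal effect; hits raise yellow fluorescence by blocking Vif-driven A3G-eYFP degradation; nearly all actives have a fitted effect of over 70% in size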
test-context: HeLa A3G-eYFP + Vif (tagged APOBEC3G with the HIV-1 protein that degrades it), eYFP fluorescence, 24 h
About 1,100 (52%) of roughly 2,100 compounds were called active. Roughly 27% stayed inconclusive and do not appear here. So high a share suggests a set chosen from earlier hits. Some of the results follow.
Listed next: entries and their corresponding Potency.

// known answers, use as guide
CCN(CC)c1ccc(/C=C2\C(=O)NC(=S)N(C)C2=O)o1 : 14 µM (active)
Cc1c(Cl)cccc1NC(=O)c1oc2ccc(S(=O)(=O)N3CCC4(CC3)OCCO4)cc2c1C : 7.31 µM (active)
O=C1NC(=O)N(c2ccc3c(c2)OCO3)C(=O)/C1=C\c1ccc(N2CCCCC2)o1 : 20.6 µM (active)
CN(C)c1ccc(C(=O)c2ccc(N(C)C)cc2)cc1 : 1.58 µM (active)
Cc1nn(Cc2ccccc2)c(C)c1C(=O)OCC(=O)Nc1ccccc1SCC#N : 15.8 µM (active)

The record that follows has no Potency shown yet.
Query string: Query: Potency; subject: CN1C(=O)/C(=C\c2ccc(N3CCCCC3)o2)C(=O)NC1=S
Result string: 17.7 µM (active)
